- system: CDK2/cyclin A (Homo sapiens, UniProt P20248)
- assay: CDK2/cyclin A kinase assay, substrate pRb(773-928)
- Type: biochemical
- conditions: relative to H-His-Ala-Lys-Arg-Arg-Leu-Ile-Phe-NH2 (SEQ ID No. 36) = 1; CDK2/cyclin A kinase assay, pRb substrate, [ATP] = 100 μM
Numbered stars: 1 amine (or outer) side, 2 acyl side, 3 side chain; on linkers, the order of the positions; unused ones are H or OH. Square brackets hold non-standard residues; d marks the D form. Dhp = Dehydrophenylalanine, O=C(/C(=C/c1ccccc1)N[*:1])[*:2]; dPsa = O-acetyl-D-phenylserine; Phe(ol) = N[C@H](CO)Cc1ccccc1; Psa = O-acetylphenylserine; dPse = not defined here; Pse = Phenylserine
I'd be grateful if you could share measured Relative activity Kinase Inhibition for these entries.

Prompt line: For CDK2/cyclin A (Homo sapiens, UniProt P20248), provide Relative activity Kinase Inhibition of 118 (H-HAKRRLI[Dhp]-OH; not fully specified) [compound 118] please.
Response line: 3.3

Prompt line: For CDK2/cyclin A (Homo sapiens, UniProt P20248), provide Relative activity Kinase Inhibition of 114 (H-HAKRRLI[Psa]-OH) [compound 114] please.
Response line: 22

Prompt line: For CDK2/cyclin A (Homo sapiens, UniProt P20248), provide Relative activity Kinase Inhibition of 111 (H-HAKRRLI[dPse]-OH; reading uncertain) [compound 111] please.
Response line: <0.1

Prompt line: For CDK2/cyclin A (Homo sapiens, UniProt P20248), provide Relative activity Kinase Inhibition of 112 (H-HSKRRLI[Pse]-OH) [compound 112] please.
Response line: <0.1

Prompt line: For CDK2/cyclin A (Homo sapiens, UniProt P20248), provide Relative activity Kinase Inhibition of 117 (H-HSKRRLI[dPsa]-OH) [compound 117] please.
Response line: <0.1

Prompt line: For CDK2/cyclin A (Homo sapiens, UniProt P20248), provide Relative activity Kinase Inhibition of 113 (H-HSKRRLI[dPse]-OH; reading uncertain) [compound 113] please.
Response line: <0.1

Prompt line: For CDK2/cyclin A (Homo sapiens, UniProt P20248), provide Relative activity Kinase Inhibition of 110 (H-HAKRRLI[Pse]-OH) [compound 110] please.
Response line: <0.1

Prompt line: For CDK2/cyclin A (Homo sapiens, UniProt P20248), provide Relative activity Kinase Inhibition of 115 (H-HAKRRLI[dPsa]-OH) [compound 115] please.
Response line: <0.1

Prompt line: For CDK2/cyclin A (Homo sapiens, UniProt P20248), provide Relative activity Kinase Inhibition of 120 (H-HAKRRLI[Phe(ol)]) [compound 120] please.
Response line: 0.6

Prompt line: For CDK2/cyclin A (Homo sapiens, UniProt P20248), provide Relative activity Kinase Inhibition of 116 (H-HSKRRLI[Psa]-OH) [compound 116] please.
Response line: <0.1

----------
- system: Cyclin A (Homo sapiens)
- Sequence (P20248 whole entry): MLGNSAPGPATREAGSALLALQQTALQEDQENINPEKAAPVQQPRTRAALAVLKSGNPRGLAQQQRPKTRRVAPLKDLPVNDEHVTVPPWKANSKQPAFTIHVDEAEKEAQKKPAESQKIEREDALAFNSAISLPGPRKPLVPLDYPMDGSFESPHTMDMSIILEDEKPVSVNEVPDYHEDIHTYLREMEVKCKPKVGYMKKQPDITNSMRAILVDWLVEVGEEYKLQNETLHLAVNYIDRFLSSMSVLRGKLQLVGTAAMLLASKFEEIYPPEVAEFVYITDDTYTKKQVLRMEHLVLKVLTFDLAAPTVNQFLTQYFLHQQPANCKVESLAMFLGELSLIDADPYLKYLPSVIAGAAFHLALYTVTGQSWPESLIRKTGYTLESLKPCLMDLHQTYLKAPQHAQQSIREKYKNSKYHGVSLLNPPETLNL
- assay: Cyclin A binding assay, immobilised biotinyl-Ahx-[…]NH2
- conditions: Lys154 substitutions; relative to H-His-Ala-Lys-Arg-Arg-Leu-Ile-Phe-NH2 (=1)
Square brackets hold non-standard residues; d marks the D form. Nle = CCCC[C@H](N)C(=O)O; Abu = CC[C@H](N)C(=O)O
measurement_type: Relative activity Cyclin A Binding

Prompt line: For Cyclin A (Homo sapiens), provide Relative activity Cyclin A Binding of H-His-Ala-Nle-Arg-Arg-Leu-Ile Phe-NH2 (H-HA[Nle]RRLIF-NH2; SMILES CCCC[C@H](NC(=O)[C@H](C)NC(=O)[C@@H](N)Cc1c[nH]cn1)C(=O)N[C@@H](CCCNC(=N)N)C(=O)N[C@@H](CCCNC(=N)N)C(=O)N[C@@H](CC(C)C)C(=O)N[C@H](C(=O)N[C@@H](Cc1ccccc1)C(N)=O)[C@@H](C)CC) please.
Response line: 0.2

Prompt line: For Cyclin A (Homo sapiens), provide Relative activity Cyclin A Binding of H-His-Ala-Leu-Arg-Arg-Leu-Ile Phe-NH2 (H-HALRRLIF-NH2) please.
Response line: 1.4

Prompt line: For Cyclin A (Homo sapiens), provide Relative activity Cyclin A Binding of H-His-Ala-Ala-Arg-Arg-Leu-Ile Phe-NH2 (H-HAARRLIF-NH2) please.
Response line: 0.5

Prompt line: For Cyclin A (Homo sapiens), provide Relative activity Cyclin A Binding of H-His-Ala-Abu-Arg-Arg-Leu-Ile Phe-NH2 (H-HA[Abu]RRLIF-NH2; SMILES CC[C@H](NC(=O)[C@H](C)NC(=O)[C@@H](N)Cc1c[nH]cn1)C(=O)N[C@@H](CCCNC(=N)N)C(=O)N[C@@H](CCCNC(=N)N)C(=O)N[C@@H](CC(C)C)C(=O)N[C@H](C(=O)N[C@@H](Cc1ccccc1)C(N)=O)[C@@H](C)CC) please.
Response line: 0.2

Prompt line: For Cyclin A (Homo sapiens), provide Relative activity Cyclin A Binding of H-His-Ala-Arg-Arg-Arg-Leu-Ile Phe-NH2 (H-HARRRLIF-NH2) please.
Response line: 1.5

Reference source: patent US20050153894A1
